Data provenance: patent US20210380703A1

Biological target: human Fc (human)
Test: ELISA; negative control
Item-by-item account of optical density
Report as a plain number; the unit OD is understood.

{"columns": ["binder", "optical density / OD"],
 "data": [
  ["369_E10 (antibody, V domains shown) VH: EVQLLESGGGLVQPGGSLRLSCAASGFTFSSYSMNWVRQAPGKGLEWVSNINYNGGYKSYADSVKGRFTISRDNSKNTLYLQMNSLRAEDTAVYYCARSATWHDTALDYWGQGTLVTVSS VL: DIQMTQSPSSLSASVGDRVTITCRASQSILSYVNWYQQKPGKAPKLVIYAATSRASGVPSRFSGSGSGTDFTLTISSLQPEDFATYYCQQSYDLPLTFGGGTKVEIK", 0.412]
]}

Next:
Prompt line: Data request, read-out optical density, for 369_F07 (antibody, V domains shown) VH: EVQLLESGGGLVQPGGSLRLSCAASGFTFDSYSMNWVRQAPGKGLEWVAGINYNGGYKSYADSVKGRFTISRDNSKNTLYLQMNSLRAEDTAVYYCARSATWHDTHLDYWGQGTLVTVSS VL: DIQMTQSPSSLSASVGDRVTITCRASQSILSYVNWYQQKPGKAPKLVIYAATSRASGVPSRFSGSGSGTDFTLTISSLQPEDFATYYCQQSYESPLTFGGGTKVEIK
Response line: 0.335
